These entries and their values trace back to PubChem BioAssay AID463173.

// values below are reported survival
Test system: DeltatarO mutant
methodNotes: S. aureus survival, RN4220 and DeltatarO strains – OD600, teichoic acid synthesis inhibitors, primary screen (AID 463173)
measurementContext: S. aureus RN4220 wild type/DeltatarO growth, OD600, 18 h, active compounds read low, screened at 18.75 µg/mL (by protocol)
Out of some 52,000 compounds screened, about 4,300 (8.3%) were called active. The full list was thinned out, with actives kept by preference.
measuredMetric: survival (%)

# compound, unitSpec, recordedResult
records = [
    ("Cc1cc(C)cc(N2C(=O)CS(=O)(=O)C23C(=O)N(Cc2ccccc2)c2ccccc23)c1 (centres undefined)", "%", 82),
    ("O=C1CC(c2nc(-c3ccccc3)no2)CN1c1ccccc1 (centres undefined)", "%", 25),
    ("COc1ccc(N(Cc2nnc3n2CCCCC3)C(=O)Nc2cccc(C)c2)cc1Cl", "%", 81),
    ("Cc1ccc(NC(=O)CSc2nc3ccc(Br)cc3[nH]2)c(C)c1", "%", 42),
    ("CCOc1ccc(-n2c(=O)c3c(C)c(C)sc3n(CC(=O)N3CCC(C)CC3)c2=O)cc1", "%", 71),
    ("O=C1CC(c2nc(-c3ccccc3)no2)CN1c1ccc2c(c1)OCCO2 (centres undefined)", "%", 93),
    ("Cn1c(=O)c(=O)n(C)c2cc(S(=O)(=O)CCC(=O)Nc3cccc(C(F)(F)F)c3)ccc21", "%", 80),
    ("Cc1cccc(N2C(=O)C3C(C(=O)NC4CC4)C4C=CC3(O4)C2C(=O)NC2CCCC2)c1 (centres undefined)", "%", 75),
    ("Cc1ccc(OCCn2c(COc3ccc(Cl)cc3)nc3ccccc32)cc1", "%", 65),
    ("COc1ccc(NC(=O)CSc2nc3ccccc3[nH]2)cc1", "%", 70),
    ("CC(C)Cn1c(=O)c2ccccc2n2c(-c3ccc(Br)cc3)nnc12", "%", 94),
    ("COc1ccc(OC)c(NC2=C(c3ccccc3)C(=O)c3ccccc32)c1", "%", 62),
    ("COc1ccccc1Cn1c(CNS(=O)(=O)c2ccc(CC(C)C)cc2)nc2cccnc21", "%", 95),
    ("Cc1ccc(NC(=O)C2CC(=O)N(c3ccc(OC(C)C)cc3)C2)cc1 (centres undefined)", "%", 82),
    ("CCCSc1ncc(Cl)c(C(=O)NCc2ccc(OC)cc2)n1", "%", 52),
    ("CCOc1cc(-c2nnc(SCC(=O)NCCCOC)nc2-c2ccc(OC)c(OCC)c2)ccc1OC", "%", 73),
    ("COc1ccccc1OCCn1c(COc2cc(C)ccc2C)nc2ccccc21", "%", 61),
    ("COc1ccc(C2=C(Nc3ccc(Br)c(C)c3)c3ccccc3C2=O)cc1", "%", 0),
    ("CN(c1ccc(Cl)cc1)S(=O)(=O)c1nnc(NC(=O)c2ccco2)s1", "%", 62),
]
